Listing of recorded pIC50 by entry.
Test system: SH-SY5Y (neuroblastoma)
Assay: Cell viability, MTT test
Format: cell-based, Human
Conditions: Homo sapiens, SH-SY5Y, 24 h, read-out: IC50 (concentration causing 50% inhibition of cell population growth)
Reminder that pIC50 is minus the log10 of a molar concentration.

CN(C)CCCNc1c([N+](=O)[O-])c(Cl)cc2c1no[n+]2[O-].Cl [4g] : 4.68

Next compound, pIC50 to be filled in.
Exercise: Would you kindly share the measured pIC50 for O=[N+]([O-])c1c(Cl)cc2c(no[n+]2[O-])c1NCCCN1CCOCC1 [4e] ?
Solution: 4.62
